Species: Rattus norvegicus
experiment.description: Open TG-GATES - Regimen: Daily Repeat
Format: toxicity, organism-based, Sprague-Dawley
Design: regimen Daily Repeat, gender Male, age 6 weeks
condition.details: in vivo, po, 0 mg/kg, […], tissue Plasma, route gavage, dose level Control, time 14 day
value.type: Cl (meq/L)

| compound | value.units | observed.measurement |
| --- | --- | --- |
| O=C(CCCN1CCC(O)(c2ccc(Cl)cc2)CC1)c1ccc(F)cc1 | meq/L | 106.8 |
| CC1=C(/C=C/C(C)=C/C=C/C(C)=C/CO)C(C)(C)CCC1 | meq/L | 106 |
| COc1ccc2[nH]c([S+]([O-])Cc3ncc(C)c(OC)c3C)nc2c1 (stereo not given) | meq/L | 102 |
| NC(N)=Nc1nc(CSCCC(N)=NS(N)(=O)=O)cs1 | meq/L | 103.2 |
| CN(C)CCN(Cc1cccs1)c1ccccn1 | meq/L | 107.4 |
| COC1=CC(=O)C[C@@H](C)[C@]12Oc1c(Cl)c(OC)cc(OC)c1C2=O | meq/L | 102.4 |
| CCCNC(=O)NS(=O)(=O)c1ccc(Cl)cc1 [CHLORPROPAMIDE] | meq/L | 104.2 |
| CCOc1ccc(NC(=O)CC(C)O)cc1 (stereo not given) | meq/L | 104.4 |
| CCOC(=O)CCC(=O)O[C@H]1[C@H](O[C@@H]2[C@@H](C)[C@H](O[C@H]3C[C@@](C)(OC)[C@@H](O)[C@H](C)O3)[C@@H](C)C(=O)O[C@H](CC)[C@@](C)(O)[C@H](O)[C@@H](C)C(=O)[C@H](C)C[C@@]2(C)O)O[C@H](C)C[C@@H]1N(C)C [ERYTHROMYCIN ETHYLSUCCINATE] | meq/L | 105.2 |
| NNC(=O)c1ccncc1 | meq/L | 106.8 |
